Recorded values, source ChEMBL document CHEMBL2406919.

# experiment_description: Antifungal activity against Phytophthora cryptogea after 3 to 5 days by photometric method
# Format: functional
reported_endpoint: ED50

Worked cases, answers included:
1) COc1c(Cl)c(C)c(Cl)c(O)c1C1OC(=O)c2c(O)cc(O)c(CC=C(C)C)c21 (racemic) | 18.9 µg/mL
2) COc1cc(OC)c(CC=C(C)C)c(C(=O)c2c(O)c(Cl)c(C)c(Cl)c2OC)c1C=O | > 50 µg/mL
3) COc1c(Cl)c(C)c(Cl)c(O)c1C(=O)c1c(C=O)c(O)cc(O)c1CC=C(C)C | 33.9 µg/mL
4) COc1cc(OC)c(CC=C(C)C)c(C(=O)c2c(OC)c(Cl)c(C)c(Cl)c2OC)c1Br | > 50 µg/mL
5) COc1c(Cl)c(C)c(Cl)c(O)c1C1NC(=O)c2c(O)cc(O)c(CC=C(C)C)c21 (racemic) [PESTALACHLORIDE A] | > 50 µg/mL

Query: Tell me ED50 reported for "COc1c(Cl)c(C)c(Cl)c(O)c1C(=O)c1c(Br)c(O)cc(O)c1Br"
Reply: > 50 µg/mL

Query: Tell me ED50 reported for "COc1cc(OC)c(Br)c(C(=O)c2c(OC)c(Cl)c(C)c(Cl)c2OC)c1Br"
Reply: > 50 µg/mL

---

# System: Staphylococcus aureus
# experiment_description: Antimicrobial activity against Staphylococcus aureus ATCC 29213 after 24 hrs by microdilution method
# Format: functional
# stated_conditions: ATCC 29213, 24 h
reported_endpoint: MIC (µg/mL)
Give the quantity in µg/mL, number only.

1. COc1c(Cl)c(C)c(Cl)c(O)c1C(=O)c1c(C=O)c(O)cc(O)c1CC=C(C)C | 16

Query: Tell me MIC reported for COc1c(Cl)c(C)c(Cl)c(O)c1C1NC(=O)c2c(O)cc(O)c(CC=C(C)C)c21 (racemic) [PESTALACHLORIDE A]
Reply: 10

---

# experiment_description: Antifungal activity against Pyrenophora teres after 3 to 5 days by photometric method
# Type: functional
reported_endpoint: ED50 (µg/mL)
Give the quantity in µg/mL, number only.

1) COc1c(Cl)c(C)c(Cl)c(O)c1C(=O)c1c(C=O)c(O)cc(O)c1CC=C(C)C | 2.2
2) COc1cc(OC)c(Br)c(C(=O)c2c(OC)c(Cl)c(C)c(Cl)c2OC)c1Br | 42
3) COc1c(Cl)c(C)c(Cl)c(O)c1C1OC(=O)c2c(O)cc(O)c(CC=C(C)C)c21 (racemic) | 4.3

Query: Tell me ED50 reported for "COc1cc(OC)c(CC=C(C)C)c(C(=O)c2c(O)c(Cl)c(C)c(Cl)c2OC)c1C=O"
Reply: 5.4

Query: Tell me ED50 reported for COc1c(Cl)c(C)c(Cl)c(O)c1C1NC(=O)c2c(O)cc(O)c(CC=C(C)C)c21 (racemic) [PESTALACHLORIDE A]
Reply: 33.1

---

# experiment_description: Antifungal activity against Leptosphaeria nodorum after 3 to 5 days by photometric method
# Assay type: functional
Recorded measurements of ED50, one per entry

1. COc1cc(OC)c(Br)c(C(=O)c2c(OC)c(Cl)c(C)c(Cl)c2OC)c1Br | > 50 µg/mL

Query: Tell me ED50 reported for COc1c(Cl)c(C)c(Cl)c(O)c1C1OC(=O)c2c(O)cc(O)c(CC=C(C)C)c21 (racemic)
Reply: > 50 µg/mL
